Answer each item with its documented pIC50.
Biological target: UniProt P78527
Assay: DNA-PK assay (biochemical), flashplate 33P-ATP kinase assay
Conditions: biochemical DNA-PK assay
Procedure: A) DNA-PK Assay (Biochemical) The kinase assay was carried out in streptavidin-coated […] microtitre flashplates. […] The reaction was stopped using 50 μl/well of 200 mM EDTA. After incubation for a further 30 min at room temperature, the liquid was removed. […] A nonspecific reaction (blank value) was determined using 10 μM of an innate kinase inhibitor. The radioactivity measurement was carried out using a TopCount. IC50 values were calculated in RS1.
pIC50: −log10 of the molar value.

Worked set:
Query: pIC50; subject: COc1nccnc1[C@H](O)c1cc(-c2ncnc3cc(N4CCOCC4)ccc23)c(F)cc1Cl
> 8.52

Query: pIC50; subject: OC(c1ccc(F)c(-c2ncnc3cc(N4CCOCC4)ccc23)c1)c1nncc2ccoc12 (stereo not drawn)
> 8.52

Query: pIC50; subject: OC(c1cc(-c2ncnc3cc(N4CCOCC4)ccc23)c(F)cc1F)c1nccnc1OC(F)F (stereo not drawn) [Example 450]
7.52 to 8.15

Field: pIC50. Fill in for each record below.
1. NC(=O)C(c1cc(-c2ncnc3cc(N4CCOCC4)ccc23)c(F)cc1Cl)c1cccc2nncn12 (stereo not drawn)
2. OC(c1cccnn1)c1cc(-c2ncnc3cc(N4CCOCC4)ccc23)ccc1Cl (single isomer, unassigned) [Example 470]
3. NC(=O)c1cncc(C(C(N)=O)c2ccc(F)c(-c3ncnc4cc(N5CCOCC5)ccc34)c2)n1 (stereo not drawn)

7.52 to 8.15
8.15 to 8.52
7.52 to 8.15

Field: pIC50. Fill in for each record below.
1. Cc1ncc(C(O)c2ccc(F)c(-c3ncnc4cc(N5CCOCC5)ccc34)c2)nc1C (stereo not drawn)
2. COc1ccc(C(O)c2cc(-c3ncnc4cc(N5CCOCC5)cnc34)c(F)cc2Cl)nn1 (stereo not drawn) [Example 257]
3. COc1nccnc1C(O)c1cc(-c2ncnc3cc(N4CCOCC4)ccc23)c(F)cc1F (stereo not drawn) [Example 467]
4. COc1ccc(C(C(N)=O)c2cc(-c3ncnc4cc(N5CCOCC5)ccc34)c(F)cc2F)nn1 (stereo not drawn)
5. COc1nccnc1C(O)c1cc(-c2ncnc3cc(N4CCOCC4)cnc23)c(F)cc1Cl (stereo not drawn) [Example 231]
6. Cn1c(C(O)c2cc(-c3ncnc4cc(N5CCOCC5)ccc34)ccc2F)cccc1=O (stereo not drawn) [Example 401]

1: 7.52 to 8.15; 2: 8.15 to 8.52; 3: 8.15 to 8.52; 4: 7.52 to 8.15; 5: 7.52 to 8.15; 6: 8.15 to 8.52
